target: Cyclin-dependent kinase 5/CDK5 activator 1 (Homo sapiens, UniProt Q00535); assay: Inhibition of CDK5/p25 (unknown origin); format: protein-complex assay
Sequence (Q00535 whole entry): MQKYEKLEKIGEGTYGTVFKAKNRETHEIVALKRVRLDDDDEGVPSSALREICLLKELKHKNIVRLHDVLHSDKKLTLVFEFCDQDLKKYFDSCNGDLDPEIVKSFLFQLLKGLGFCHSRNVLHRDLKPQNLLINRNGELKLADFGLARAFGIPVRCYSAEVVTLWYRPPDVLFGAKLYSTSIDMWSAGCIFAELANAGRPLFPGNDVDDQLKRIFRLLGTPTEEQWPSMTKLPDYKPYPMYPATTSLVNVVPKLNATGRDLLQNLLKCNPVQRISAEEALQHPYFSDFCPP
Sequence (Q15078 whole entry, further chain): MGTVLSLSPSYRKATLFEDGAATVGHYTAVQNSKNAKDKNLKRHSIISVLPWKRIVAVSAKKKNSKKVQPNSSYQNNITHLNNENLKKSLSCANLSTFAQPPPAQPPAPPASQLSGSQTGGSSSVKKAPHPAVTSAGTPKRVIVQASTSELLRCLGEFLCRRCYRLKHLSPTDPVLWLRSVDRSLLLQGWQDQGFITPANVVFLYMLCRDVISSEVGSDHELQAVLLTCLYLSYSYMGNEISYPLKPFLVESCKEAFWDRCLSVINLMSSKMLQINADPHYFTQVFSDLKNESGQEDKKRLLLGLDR
readout_label: pIC50
pIC50 field: float, defined as -log10 of concentration (mol/L).

Q: Given the entry C[C@@]12CCC[C@H]1[C@@H]1CC[C@H]3C[C@H](N)CC[C@]3(C)[C@H]1CC2 , what pIC50 was observed with Cyclin-dependent kinase 5/CDK5 activator 1 (Homo sapiens, UniProt Q00535)?
Ans: 5.22

Q: Try the compound C[C@]12CC[C@H]3[C@@H](CCC4=CC(=O)CC[C@@]43C)[C@@H]1CC[C@@H]2C(=O)COS(=O)(=O)c1ccc(Br)cc1
Ans: 5.22

Q: Next compound up: COc1ccc(CC(=O)Cc2ccn([C@H]3C[C@@H](C(N)=O)C3)c2)cc1
Ans: 8.05

Entry source: ChEMBL document CHEMBL5338803
